Entry source: PubChem BioAssay AID1159580

experiment: chemical genetic growth profiling, strain panel (AID 1159580);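 note: tested at 20 µM; growth read once vehicle control cultures reached saturation at 30 °C; 1 = growth at the plate median or of vehicle wells; lower values mean less growth of the strain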; conditions: S. cerevisiae deletion strains, growth OD, locus YLR262C, strain YPT6, hits give low values
Out of some 5,500 compounds screened, about 2,000 (36%) were called active. Not shown: some 18% with an inconclusive outcome. The list shows a part of the results.
Assignment: determine reported normalized growth for the given compounds.
Kindly provide the number alone.

normalized growth measured on S=C(NCCCn1ccnc1)Nc1cc(Cl)ccc1Cl = 1.05

normalized growth measured on CCOC(=O)c1c(N=Cc2cc(Br)c(Br)cc2O)sc2c1CCCC2 = 0.17

normalized growth measured on OCC(S)CS (stereo not given) = 0.996

normalized growth measured on CC(=O)C1=C(O)C2C3c4c[nH]c5cccc(c45)CC3C(C)(C)N2C1=O (stereo not given) = 0.97

normalized growth measured on COc1cc(/C=C/C(=O)O)cc(OC)c1OC = 1.01

normalized growth measured on Cc1ccc(C(C)C)cc2c(C)ccc1-2 = 0.909

normalized growth measured on Fc1cccc(Cl)c1Cn1nnc(N2CCCCC2)n1 = 0.881

normalized growth measured on COC(=O)c1ccc(C(=O)OC)nc1 = 0.984

normalized growth measured on O=C(O)c1cc(C(F)(F)F)ccc1F = 0.979

normalized growth measured on Cc1ccc(-n2nc(-c3ccc(OC(F)(F)F)cc3)cc2NC(=O)Nc2ccc(OC(F)(F)F)cc2)cc1C = 1.05

normalized growth measured on COc1nc(N)nc(SC)n1 = 0.974

normalized growth measured on CC(=O)c1ccc(-c2ccc(C(C)=O)cc2)cc1 = 1.03

normalized growth measured on COS(C)(=O)=O = 1.06

normalized growth measured on Cc1cc(/C=N/NC(N)=S)c2c(C)ccc(C(C)C)cc1-2 = 1.02

normalized growth measured on CCCCC(CC)CN=C(N)NC(N)=NCCCCCCN=C(N)NC(N)=NCC(CC)CCCC (stereo not given) = 0.104

normalized growth measured on Nc1c(Br)cc(Br)cc1CNC1CCC(O)CC1 (stereo not given) = 1.04

normalized growth measured on CCOc1ccc2c(c1)C(C)=CC(C)(C)N2 = 0.969

normalized growth measured on CCCN(CCC)C(=O)C(CCC(=O)O)NC(=O)c1ccccc1 (stereo not given) = 0.998

normalized growth measured on ON(Cc1c(F)cccc1Cl)Cc1c(F)cccc1Cl = 0.829

normalized growth measured on S=c1[nH]c2ccccc2s1 = 0.921

normalized growth measured on Cc1ccc(Cl)cc1NC(=S)NCCO = 1.01

normalized growth measured on O=C(O)CCC(=O)c1ccc(-c2ccccc2)cc1 = 0.821

normalized growth measured on c1ccc2[nH]c(-c3cscn3)nc2c1 = 0.968

normalized growth measured on O=C1c2cccc3c(SCCO)ccc(c23)C(=O)N1CCc1ccccn1 = 1

normalized growth measured on CN(C)c1ccc(/C=N\NC(=O)CCc2ccc(O)cc2)c(Cl)c1 = 0.946

====

assay: chemical genetic growth profiling, strain panel (AID 1159580);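 note: tested at 20 µM; growth read once vehicle control cultures reached saturation at 30 °C; 1 = growth at the plate median or of vehicle wells; lower values mean less growth of the strain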; settings: S. cerevisiae deletion strains, growth OD, locus YDR297W, strain sur2, hits give low values
Out of some 5,500 compounds screened, about 2,000 (36%) were called active. Inconclusive results (about 18%) are left out. This is one part of the list.
Assignment: determine reported normalized growth for the given compounds.
Kindly provide the number alone.

normalized growth measured on CC(=O)OCC(=O)[C@@]12OC(C)(C)O[C@@H]1CC1C3C[C@H](F)C4=CC(=O)C=C[C@]4(C)[C@@]3(F)[C@@H](O)C[C@@]12C (stereo partly specified) = 1.02

normalized growth measured on Nc1nc(N)c2nc(CNc3ccc(C(=O)NC(CCC(=O)O)C(=O)O)cc3)cnc2n1 (stereo unspecified) = 1

normalized growth measured on O=C(O)CCC(=O)c1ccc(-c2ccccc2)cc1 = 0.99

normalized growth measured on C=CCc1cc(OC)c2c(c1OC)OCO2 = 0.94

normalized growth measured on Nc1nc2ncc(CNc3ccc(C(=O)N[C@@H](CCC(=O)O)C(=O)O)cc3)nc2c(=O)[nH]1 = 0.997

normalized growth measured on CCCNC(C)C(=O)Nc1ccccc1C (stereo unspecified) = 1
